Values from the supplement of paper PMC6555819

- Tested on: LXRb:RXRa (NR concentration 270 nM, RXRa partner concentration 90 nM)
- procedure text: PBM binding z-score (relative to random genomic background probes); higher = stronger binding; sequences stand for … in GC…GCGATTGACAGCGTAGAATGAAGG
Output TRUE for PBM binding z-score not less than 2; output FALSE otherwise.

In [3]: df
Out[3]:
                       sequence_string  assigned_label
 0  CAAAGTAGGTCACCGGAAGGTCAAAGTCCGCATG            TRUE
 1  CGAACTAGGTCACCATGACAGTGAAGAGGTTGGA           FALSE
 2  TAGCCTAGGTCATTCAGGGGTCAGTATAGAAAGC            TRUE
 3  CGAACTAGGTCAGCAGGACAGTGAAGAGGTTGGA           FALSE
 4  CCTAGTTGGGCAGGAGGTCACACACCGGATATGA            TRUE
 5  CAAGCTAGGTCAAGAGGTCAAAGTCCGCTTCCCG            TRUE
 6  CAAACTAGGTCACAGAGGTCAAAGTTCGTGCGTA            TRUE
 7  CCGACTTGGGCAAAGGTTACCATACTCAGTACGA           FALSE
 8  CCGAGTAGGTTAAGAGGGGGCATTCAGTGCGAAT            TRUE
 9  CGGACTAGGTCAAAGGACAGTGAAAGGCGACGTA           FALSE
10  CGAACTAGGTCAGAGCAGGACAGTGAAGGATGAT           FALSE
11  ATACGTAGGTTATCGGGTCATTCAGTTTGCGCAT            TRUE
12  CTAACTAGGTCACCGGAAGGTCAAAGTCCGCATG            TRUE
13  AGAATGAGGTTAACAAAGATCAGGGAAACGCTTG            TRUE
14  TCGAGTAGGTTACGGGGGCCTTCAGGGATGAAGA            TRUE
15  CCGAGTAGGGTACGAGGGGGCATTCAGTGCGAAT            TRUE
16  ACTCGGAGGACAAACGTCAGAGCTACGCCAGTGA           FALSE
17  AGTCAAAGTTCATCTAGGTATCGTAAGATATGCT            TRUE
18  ATATGTAGGTTAGGGTCATTAAGAAAGTAGGGAA            TRUE
19  CCGAGTAGGTTACGAGGGGGCATTGAGTGCGAAT            TRUE
20  TCTAGTTGGTCACGGAGGTCACACGCGACGGGTA            TRUE
21  CAAACTAGGTCACAGAGGGCAAAGTCCGTGCGTA            TRUE
22  GCTGCTAGGTCAACTGATGGTGAGCTAAAGCTCG           FALSE
23  CGAACTAGGTCACCAGTACAGTGAAGAGGTTGGA           FALSE
24  ATATGTATGTTAGGGTCATTCAGAAAGTAGGGAA            TRUE
25  TATACAGGGTCAAAGGGCAGAGTACGAATGTCGA            TRUE
26  CCTAGCAGGCCAGGTTCACTCAAGCATTTCGCTT           FALSE
27  AATACAGGATCACTAGGCCAGAGTAGGTACGAAT           FALSE
28  CGATGTAGGTTAAGGGGGTCATTCAGTTTGAAAG            TRUE
29  CCGAGTAGGTTTCGAGGGGGCATTCAGTGCGAAT            TRUE
30  ACTAGTTGGTCAGCTGAGGTCACACTCAATTCGG            TRUE
31  TAGCCTAGGCCATGGGCCAGTATACCACGCGAAC           FALSE
32  CGAACTAGGTCACCAGGACAGTCAAGAGGTTGGA           FALSE
33  CGAACTAGGCCACCAGGACAGTGAAGAGGTTGGA           FALSE
34  TCGAGTAGGTTACGGGGGCATTCAGGGATGAAGA            TRUE
35  GATACAGGGTCAACTAGAGGCCAGAGTATGGAAA            TRUE
36  GATAGTTGGTCAGTAAAAGGTCACACACCGGTCG            TRUE
37  CGAACTAGGTCAAAGGACAGTGTAAGGCGACGTA           FALSE
38  GATAAAGGGTCAGCTAGAGGCCAGAGTATGGAAA            TRUE
39  ACTAGCAGGCCAAGAGTCACTCAAGATTAGTCCG           FALSE
40  GCTGCTAGGTCAGGTTGGTCGGCTAACGGGTACG           FALSE
